Origin of the recorded values: ChEMBL document CHEMBL4308841

# System: DU-145
# protocol.summary: Growth inhibition of human DU145 cells assessed as cell growth at 10 uM incubated for 48 hrs by sulforhodamine B assay relative to control
# Format: functional
# condition.notes: DU-145, 48 h, read-out: Activity
assay.endpoint: growth at 10 µM (%)
Numbers only, in %.

{"smiles.str": "O=C(Nc1cccc(-n2cc(-c3ccncc3)c(-c3cc(O)cc(Cl)c3)n2)c1)c1cc(C(F)(F)F)cc(C(F)(F)F)c1", "unit.spec": "%", "growth at 10 µM": 62.1}
{"smiles.str": "COc1cc(Cl)cc(-c2nn(-c3cccc(NC(=O)c4cc(C(F)(F)F)cc(C(F)(F)F)c4)c3)cc2-c2ccncc2)c1", "unit.spec": "%", "growth at 10 µM": 78.2}
{"smiles.str": "O=C(Nc1cccc(-n2cc(-c3ccncc3)c(-c3cc(O)cc(Cl)c3)n2)c1)Nc1ccc(Cl)c(C(F)(F)F)c1", "unit.spec": "%", "growth at 10 µM": 18.7}

Sample COc1cc(Cl)cc(-c2nn(-c3cccc(NC(=O)c4ccc(N5CCOCC5)c(C(F)(F)F)c4)c3)cc2-c2ccncc2)c1 ; growth at 10 µM observed: 93.3
